ASSAY_DETAILS: NCI Yeast Anticancer Drug Screen. Data for the sgs1 mgt1 strain (AID 161)
DETAILS: S. cerevisiae sgs1 mgt1 strain, at 50.0 µM (retest, dose inferred, filed as 5.0)
Compounds without any hit were thinned out: in the full panel of roughly 79,000, 15% have a hit. Activity calls are given as the source filed them. Cut-off read from the data, not from the text of the source: active = growth inhibition above about 70%; inactive = the rest.
Respond only with the outcome that fits, drawn from active, inactive

Problem: # lookup: test call for "[O-][n+]1c2ccccc2nc2cc(Cl)ccc21"
Result: inactive

More entries:
Problem: Outcome logged for "FC(F)(F)c1[nH]nc(-c2cccs2)c1N=NN1CCOCC1" in this assay:
Result: active

Problem: # repeat for "c1ccc2c3[nH]c(c2c1)=Nc1ccc(cc1)-c1nc2ccc(cc2o1)N=c1[nH]c(c2ccccc12)=Nc1ccc2nc(oc2c1)-c1ccc(cc1)N=3"
Result: active

Problem: Try "CCc1cccc(C)c1NC(=O)/C(Cl)=C(\Cl)C(=O)O" next.
Result: active

Problem: Input CN(C)CC1CCc2c(ccc3ccccc23)C1=O (stereo not drawn)
Result: active

Problem: Now try "Cc1cc(-c2ccccc2)c(C)c(-c2ccccc2)c1-c1ccccc1" .
Result: inactive

Origin of the recorded values: PubChem BioAssay (NCI)
